- system tested: T1, recombinant human interleukin 12 (p40/p35 heterodimer) (human, UniProt P29460 23-328; P29459 23-219)
- T1 chain 1: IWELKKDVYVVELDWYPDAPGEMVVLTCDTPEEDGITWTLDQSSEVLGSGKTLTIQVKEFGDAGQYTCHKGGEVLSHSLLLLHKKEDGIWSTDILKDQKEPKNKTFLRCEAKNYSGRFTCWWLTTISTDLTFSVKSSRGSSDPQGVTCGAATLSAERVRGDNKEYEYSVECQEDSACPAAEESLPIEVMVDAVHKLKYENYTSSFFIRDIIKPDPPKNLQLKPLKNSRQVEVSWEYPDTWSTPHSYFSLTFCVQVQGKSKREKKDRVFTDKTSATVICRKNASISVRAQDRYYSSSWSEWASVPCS
- T1 chain 2: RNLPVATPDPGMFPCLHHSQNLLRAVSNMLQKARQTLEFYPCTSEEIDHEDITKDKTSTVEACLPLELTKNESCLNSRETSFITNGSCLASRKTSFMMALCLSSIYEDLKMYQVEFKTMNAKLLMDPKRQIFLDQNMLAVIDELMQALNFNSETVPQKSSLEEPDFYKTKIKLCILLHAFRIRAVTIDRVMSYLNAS
- test protocol: BIAcore
measured quantity: log10 koff (log10 of the value in s⁻¹)
Hey, these are logged values: log10 of koff, s⁻¹ being the unit before logging.

{"binder": "FTFSCYGMH [Y61 H31 C]", "measured quantity": "log10 koff", "reported value": -3.92}
{"binder": "FTFSQYGMH [Y61 H31 Q]", "measured quantity": "log10 koff", "reported value": -3.82}

Q: Which log10 koff is listed for FTFTSYGMH [Y61 H30 T] ?
Result: -3.49

Q: Continue with FTFSSYCMH [Y61 H33 C]
Result: -2.54

All values here come from patent US20110123544A1.
